Tested on: K562 CRISPRi cells
Assay: Perturb-seq pooled growth measurement (sgRNA counts, growth phenotype γ, relative activity)
Format: cell-based, human
Conditions: sequencing read counts; 5 days of growth (day seven after transduction)
parameter-measured: Perturb-seq pooled growth sgRNA counts, d5
Answer as a number with no unit attached.

QUERY: State, in one line, measured Perturb-seq pooled growth sgRNA counts, d5 of CAD_+_27440280.23-P1P2_00: sgRNA targeting CAD, GGCTGGAGAGAAGCCGGGCG, SEQ ID NO: 20 (listed as DNA, chemistry not fully specified)
RESULT: 2464

QUERY: State, in one line, measured Perturb-seq pooled growth sgRNA counts, d5 of GATA1_−_48645022.23-P1P2_06: sgRNA targeting GATA1, GTGAGCTTGCGACATCCCCA, SEQ ID NO: 123 (listed as DNA, chemistry not fully specified)
RESULT: 5580

QUERY: State, in one line, measured Perturb-seq pooled growth sgRNA counts, d5 of EIF2S1_−_67827080.23-P1P2_07: sgRNA targeting EIF2S1, GAGCGAAGCGCTCGCTGAGG, SEQ ID NO: 140 (listed as DNA, chemistry not fully specified)
RESULT: 13281

QUERY: State, in one line, measured Perturb-seq pooled growth sgRNA counts, d5 of ALDOA_+_30077139.23-P1P2_00: sgRNA targeting ALDOA, GGTCACCAGGACCCCTTCTG, SEQ ID NO: 156 (listed as DNA, chemistry not fully specified)
RESULT: 4056

QUERY: State, in one line, measured Perturb-seq pooled growth sgRNA counts, d5 of CDC23_−_137548987.23-P1P2_11: sgRNA targeting CDC23, GACAGCCACCGGGACCACGG, SEQ ID NO: 101 (listed as DNA, chemistry not fully specified)
RESULT: 14320

###

System: K562 CRISPRi cells
Assay: Perturb-seq pooled growth measurement (sgRNA counts, growth phenotype γ, relative activity)
Type: cell-based, human
Details: γ relative to perfectly matched sgRNA (_00) of the same gene, day 10
parameter-measured: relative_activity_day10

QUERY: Provide relative_activity_day10, tested on K562 CRISPRi cells, for DBR1_ + _137893744.23-P1P2_00 (guide GTTTGCAGGAGTCTACACCC; listed as DNA, chemistry not fully specified) .
RESULT: 1

QUERY: Provide relative_activity_day10, tested on K562 CRISPRi cells, for HSPA9_ −_137911079.23-P1P2_07 (guide GGAGCTGCGGGATGCGGTGG; listed as DNA, chemistry not fully specified) .
RESULT: 0.8547

QUERY: Provide relative_activity_day10, tested on K562 CRISPRi cells, for RPS15_ −_1438413.23-P1P2_02 (guide GACCAAGGCGATCTCTTCTG; listed as DNA, chemistry not fully specified) .
RESULT: 0.8366

QUERY: Provide relative_activity_day10, tested on K562 CRISPRi cells, for MTOR_ + _11322547.23-P1P2_10 (guide GGGCAGGGGGCCTGAAGCAG; listed as DNA, chemistry not fully specified) .
RESULT: 0.4141

QUERY: Provide relative_activity_day10, tested on K562 CRISPRi cells, for HSPA9_ −_137911079.23-P1P2_04 (guide GGAGCTGCGCAATGCGGTGG; listed as DNA, chemistry not fully specified) .
RESULT: 0.2813

QUERY: Provide relative_activity_day10, tested on K562 CRISPRi cells, for MTOR_ + _11322547.23-P1P2_07 (guide GGGCAGGGGGTCTGAAGCGG; listed as DNA, chemistry not fully specified) .
RESULT: 0.8541

QUERY: Provide relative_activity_day10, tested on K562 CRISPRi cells, for TUBB_ + _30688126.23-P1_10 (guide GCGGCAGGAAGGTTCAGAGA; listed as DNA, chemistry not fully specified) .
RESULT: 0.2073

QUERY: Provide relative_activity_day10, tested on K562 CRISPRi cells, for HSPA9_ −_137911079.23-P1P2_02 (guide GGAGTTGCGCGATGCGGTGG; listed as DNA, chemistry not fully specified) .
RESULT: 0.6835

QUERY: Provide relative_activity_day10, tested on K562 CRISPRi cells, for ATP5E_ −_57607036.23-P1P2_16 (guide GGTGTCCAGGGGCGCTCTGT; listed as DNA, chemistry not fully specified) .
RESULT: 0.7368

QUERY: Provide relative_activity_day10, tested on K562 CRISPRi cells, for EIF2S1_ −_67827080.23-P1P2_06 (guide GAGCGAAGCGCGCGCTGAGG; listed as DNA, chemistry not fully specified) .
RESULT: 0.7051

QUERY: Provide relative_activity_day10, tested on K562 CRISPRi cells, for GNB2L1_ + _180670873.23-P1P2_00 (guide GTGCAAGGCGGCGGCAGGAG; listed as DNA, chemistry not fully specified) .
RESULT: 1

QUERY: Provide relative_activity_day10, tested on K562 CRISPRi cells, for CAD_ + _27440280.23-P1P2_06 (guide GGCTGGAGAGTAGCCGGGCG; listed as DNA, chemistry not fully specified) .
RESULT: 0.4592

QUERY: Provide relative_activity_day10, tested on K562 CRISPRi cells, for SEC61A1_ −_127771295.23-P1_03 (guide GGTACTGACGTGTCTCTCGG; listed as DNA, chemistry not fully specified) .
RESULT: 0.6074

QUERY: Provide relative_activity_day10, tested on K562 CRISPRi cells, for COX11_ + _53045977.23-P1P2_10 (guide GGCTCTGGCGTCCCGGATGG; listed as DNA, chemistry not fully specified) .
RESULT: 0.3734

QUERY: Provide relative_activity_day10, tested on K562 CRISPRi cells, for RAN_ + _131356438.23-P1P2_03 (guide GGGGGTCGCTGCGCTTAGGG; listed as DNA, chemistry not fully specified) .
RESULT: 1.22

QUERY: Provide relative_activity_day10, tested on K562 CRISPRi cells, for BCR_ + _23523092.23-P1P2_07 (guide GCGCGCGGGGCTCGTCTCAG; listed as DNA, chemistry not fully specified) .
RESULT: 0.9607

QUERY: Provide relative_activity_day10, tested on K562 CRISPRi cells, for ATP5E_ −_57607036.23-P1P2_00 (guide GGTGTCCAGGGGCACTCTGT; listed as DNA, chemistry not fully specified) .
RESULT: 1

QUERY: Provide relative_activity_day10, tested on K562 CRISPRi cells, for GINS1_ −_25388381.23-P1P2_03 (guide GGACTATAACGAAAGGAGTG; listed as DNA, chemistry not fully specified) .
RESULT: 0.6733

QUERY: Provide relative_activity_day10, tested on K562 CRISPRi cells, for DBR1_ + _137893744.23-P1P2_05 (guide GTTTGCAGGAGTGTACACCC; listed as DNA, chemistry not fully specified) .
RESULT: 0.6323

QUERY: Provide relative_activity_day10, tested on K562 CRISPRi cells, for POLR1D_ + _28196016.23-P1_08 (guide GGGAAGCAGGGACCGACCGA; listed as DNA, chemistry not fully specified) .
RESULT: 1.017

QUERY: Provide relative_activity_day10, tested on K562 CRISPRi cells, for GINS1_ −_25388381.23-P1P2_06 (guide GGACTAGAACGGAAGGAGTG; listed as DNA, chemistry not fully specified) .
RESULT: 0.9191

QUERY: Provide relative_activity_day10, tested on K562 CRISPRi cells, for TUBB_ + _30688126.23-P1_06 (guide GCGGCAGGACGGTTCTGAGA; listed as DNA, chemistry not fully specified) .
RESULT: 0.7922

QUERY: Provide relative_activity_day10, tested on K562 CRISPRi cells, for BCR_ + _23523092.23-P1P2_04 (guide GCGCGCGGAGCCCGTCTCAG; listed as DNA, chemistry not fully specified) .
RESULT: 0.8249

QUERY: Provide relative_activity_day10, tested on K562 CRISPRi cells, for GATA1_ −_48645022.23-P1P2_04 (guide GTGAGCTTACCACATCCCCA; listed as DNA, chemistry not fully specified) .
RESULT: 0.9804

###

Tested on: K562 CRISPRi cells
Assay: Perturb-seq pooled growth measurement (sgRNA counts, growth phenotype γ, relative activity)
Assay type: cell-based, human
Conditions: pooled growth phenotype γ of the Perturb-seq sgRNA, day 10, K562 CRISPRi cells
parameter-measured: gamma_day10

QUERY: Provide gamma_day10, tested on K562 CRISPRi cells, for DUT_ + _48624411.23-P1P2_07 (guide GCGAGCGAGGAGCCCACCGG; listed as DNA, chemistry not fully specified) .
RESULT: −0.4998

QUERY: Provide gamma_day10, tested on K562 CRISPRi cells, for RPS18_ + _33239917.23-P1P2_04 (guide GCTGCGATCCCGCTGGATCA; listed as DNA, chemistry not fully specified) .
RESULT: −0.08068

QUERY: Provide gamma_day10, tested on K562 CRISPRi cells, for HSPA5_ + _128003624.23-P1P2_00 (guide GAGCCGAGTAGGCGACGGTG; listed as DNA, chemistry not fully specified) .
RESULT: −0.4272

QUERY: Provide gamma_day10, tested on K562 CRISPRi cells, for DBR1_ + _137893744.23-P1P2_08 (guide GTTTGCAGTAGTCTACACCC; listed as DNA, chemistry not fully specified) .
RESULT: −0.05261

QUERY: Provide gamma_day10, tested on K562 CRISPRi cells, for DUT_ + _48624411.23-P1P2_00 (guide GCGAGCGAGGAGACCACCGG; listed as DNA, chemistry not fully specified) .
RESULT: −0.6457

QUERY: Provide gamma_day10, tested on K562 CRISPRi cells, for GATA1_ −_48645022.23-P1P2_03 (guide GTGCGCTTGCCACATCCCCA; listed as DNA, chemistry not fully specified) .
RESULT: −0.6259

QUERY: Provide gamma_day10, tested on K562 CRISPRi cells, for GATA1_ −_48645022.23-P1P2_00 (guide GTGAGCTTGCCACATCCCCA; listed as DNA, chemistry not fully specified) .
RESULT: −0.6153

QUERY: Provide gamma_day10, tested on K562 CRISPRi cells, for POLR2H_ + _184081251.23-P1P2_07 (guide GGGGCCACGAGTGCAGCAGA; listed as DNA, chemistry not fully specified) .
RESULT: −0.1426

QUERY: Provide gamma_day10, tested on K562 CRISPRi cells, for POLR1D_ + _28196016.23-P1_00 (guide GGGAAGCAAGGACCGACCGA; listed as DNA, chemistry not fully specified) .
RESULT: −0.6213

QUERY: Provide gamma_day10, tested on K562 CRISPRi cells, for GINS1_ −_25388381.23-P1P2_14 (guide GGACTAGAACGAAAGGAGCG; listed as DNA, chemistry not fully specified) .
RESULT: −0.2609

QUERY: Provide gamma_day10, tested on K562 CRISPRi cells, for CAD_ + _27440280.23-P1P2_06 (guide GGCTGGAGAGTAGCCGGGCG; listed as DNA, chemistry not fully specified) .
RESULT: −0.3141

QUERY: Provide gamma_day10, tested on K562 CRISPRi cells, for GNB2L1_ + _180670873.23-P1P2_08 (guide GTGCAAGGTGGCGGCAGGAG; listed as DNA, chemistry not fully specified) .
RESULT: −0.3155

QUERY: Provide gamma_day10, tested on K562 CRISPRi cells, for RPS15_ −_1438413.23-P1P2_00 (guide GACCAAAGCGATCTCTTCTG; listed as DNA, chemistry not fully specified) .
RESULT: −0.376

QUERY: Provide gamma_day10, tested on K562 CRISPRi cells, for POLR1D_ + _28196016.23-P1_08 (guide GGGAAGCAGGGACCGACCGA; listed as DNA, chemistry not fully specified) .
RESULT: −0.6317
